Molecular target: IRAK-1 (Homo sapiens)
Construct: Recombinant, full-length IRAK-1 or IRAK-4 enzyme (baculovirus expression system) was added; Flag (N); made in house
Sequence (P51617 whole entry): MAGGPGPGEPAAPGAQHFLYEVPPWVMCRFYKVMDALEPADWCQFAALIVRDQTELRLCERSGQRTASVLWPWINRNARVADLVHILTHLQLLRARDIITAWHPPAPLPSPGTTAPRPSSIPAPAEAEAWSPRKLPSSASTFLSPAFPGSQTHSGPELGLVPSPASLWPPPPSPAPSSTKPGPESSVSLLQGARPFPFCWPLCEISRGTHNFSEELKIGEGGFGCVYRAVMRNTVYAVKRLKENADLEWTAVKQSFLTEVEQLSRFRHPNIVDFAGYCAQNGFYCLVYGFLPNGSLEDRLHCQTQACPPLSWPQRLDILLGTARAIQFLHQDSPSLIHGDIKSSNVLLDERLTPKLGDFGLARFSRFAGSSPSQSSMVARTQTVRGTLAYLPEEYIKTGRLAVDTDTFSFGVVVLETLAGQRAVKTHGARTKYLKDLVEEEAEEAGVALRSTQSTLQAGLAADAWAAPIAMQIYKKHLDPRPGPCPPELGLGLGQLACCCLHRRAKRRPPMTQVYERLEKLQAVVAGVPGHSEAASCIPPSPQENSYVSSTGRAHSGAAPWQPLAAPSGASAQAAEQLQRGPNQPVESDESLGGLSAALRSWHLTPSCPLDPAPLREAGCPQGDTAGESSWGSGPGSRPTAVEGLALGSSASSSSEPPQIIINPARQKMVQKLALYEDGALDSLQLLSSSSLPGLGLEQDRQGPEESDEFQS
Assay: Enzymatic inhibition assay, IRAK-1 kinase activity (chemiluminescent ELISA)
Assay type: biochemical
Settings: recombinant full-length IRAK-1, 3 μM ATP, 60 min room temperature; read-out: IC50 values (μM) IRAK-1
Task for the reader: assign each of the following molecules its reported IC50.

Lookup result for "O=C(Nc1nc2ccccc2[nH]1)c1cccc([N+](=O)[O-])c1" ; measured IC50: < 10 µM

// field: IC50; key: "O=[N+]([O-])c1cccc(CNc2nc3ccccc3[nH]2)c1" ; value = 10 to 30 µM

Per the record, "O=C(Nc1nc2ccccc2n1CCN1CCOCC1)c1cccc([N+](=O)[O-])c1" has IC50 of < 10 µM

Consider the following items and state reported IC50 for each.
1. O=C(Nc1nc2cc(F)ccc2n1[C@H]1CC[C@H](O)CC1)c1cccc([N+](=O)[O-])c1
2. Cc1cc2nc(NC(=O)c3cccc([N+](=O)[O-])c3)[nH]c2cc1C

Response given:
["< 10 µM", "10 to 30 µM"]
